Reported CRF2R Emax % values are given for each entry in this list.
# target: T1, corticotropin releasing factor 2 receptor
# T1 sequence (Q13324 whole entry, species assumed, looked up): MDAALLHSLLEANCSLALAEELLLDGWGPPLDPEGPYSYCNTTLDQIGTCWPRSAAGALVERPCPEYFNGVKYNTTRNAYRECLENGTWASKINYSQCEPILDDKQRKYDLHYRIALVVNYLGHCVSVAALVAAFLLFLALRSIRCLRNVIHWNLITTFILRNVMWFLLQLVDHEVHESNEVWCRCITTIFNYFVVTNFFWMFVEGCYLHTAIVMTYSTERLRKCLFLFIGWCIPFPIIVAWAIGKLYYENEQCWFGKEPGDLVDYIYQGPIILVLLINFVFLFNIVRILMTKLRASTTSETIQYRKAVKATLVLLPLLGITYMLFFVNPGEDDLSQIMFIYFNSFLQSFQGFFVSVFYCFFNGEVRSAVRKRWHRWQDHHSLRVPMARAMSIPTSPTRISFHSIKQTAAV
# experiment_description: cell-based or functional assay
Ends that are not written are not given here.
Report only the number, with the unit % understood.

Inquiry: Which CRF2R Emax % value is on record for ZGPPISIDLPLYLLRKMIEIEKQEKEKQQATTNARLLDTV (C-terminal amide) [SEQ ID NO 242] ?
Reply text: 94

Inquiry: Please look up its CRF2R Emax %: DNPSLSIDVPFFLLRTLLELEKTQSQRERAEQNARIFARV-NH2 [SEQ ID NO 386]
Reply text: 96

Inquiry: CRF2R Emax % lookup needed for ZGPPISIDLPFQLLRKAIEIEKQEKEKQQAANNALLLATI (C-terminal amide) [SEQ ID NO 364] , thanks.
Reply text: 100
